Recorded In Vitro (MIC) MRSA 33, one value per entry.
# Test system: MRSA 33
# procedure.text: MIC by agar incorporation method, MRSA 33
# Format: cell-based, Methicillin Resistant Staphylococcus aureus
# Parameters: unit not given here
# condition.info: Mueller Hinton agar, 10^4 CFU/spot, 24 hours
attribute.measured: In Vitro (MIC) MRSA 33

[[record]]
compound = "CC(=O)NC[C@H]1CN(c2ccc(N3CCN(C(=O)c4ccc([N+](=O)[O-])s4)C(C)C3)c(F)c2)C(=O)O1 (stereo partly drawn) [Compound No. 70]"
reading_qualifier = "<"
observed_result = 0.25

[[record]]
compound = "CC(=O)NC[C@H]1CN(c2ccc(N3CCCC(=O)C3)c(F)c2)C(=O)O1 [Compound No. 96]"
reading_qualifier = "="
observed_result = 16

[[record]]
compound = "CCN(C(=O)c1ccc([N+](=O)[O-])s1)C1CCN(c2ccc(N3C[C@H](CNC(C)=O)OC3=O)cc2F)CC1 [Compound No. 79]"
reading_qualifier = "="
observed_result = 0.5

[[record]]
compound = "CC(=O)NC[C@H]1CN(c2ccc(N3CCN(Cc4coc([N+](=O)[O-])c4)CC3)c(F)c2)C(=O)O1 [Compound No. 8]"
reading_qualifier = "="
observed_result = 4

[[record]]
compound = "CC(=O)NC[C@H]1CN(c2ccc(N3CCC(NCc4ccc([N+](=O)[O-])o4)CC3)c(F)c2)C(=O)O1 [Compound No. 86]"
reading_qualifier = "="
observed_result = 1

[[record]]
compound = "O=C(NC[C@H]1CN(c2ccc(N3CCN(Cc4ccc([N+](=O)[O-])o4)CC3)c(F)c2)C(=O)O1)C(F)F [Compound No. 45]"
reading_qualifier = "="
observed_result = 2

[[record]]
compound = "CC(=O)NC[C@H]1CN(c2ccc(N3CCN(CC(=O)c4cccs4)CC3)c(F)c2)C(=O)O1 [Compound No. 2]"
reading_qualifier = "="
observed_result = 4

[[record]]
compound = "CC(=O)NC[C@H]1CN(c2ccc(N3CCN(Cc4oc([N+](=O)[O-])cc4C)CC3)c(F)c2)C(=O)O1 [Compound No. 5]"
reading_qualifier = "="
observed_result = 0.254

[[record]]
compound = "CC(=O)NC[C@H]1CN(c2ccc(N3CCCN(Cc4ccc([N+](=O)[O-])o4)CC3)c(F)c2)C(=O)O1 [Compound No. 52]"
reading_qualifier = "="
observed_result = 2

[[record]]
compound = "CC(=O)NC[C@H]1CN(c2ccc(N3CCN(C(=O)c4oc([N+](=O)[O-])cc4C)CC3)c(F)c2)C(=O)O1 [Compound No. 37]"
reading_qualifier = "="
observed_result = 0.5

[[record]]
compound = "CCN(Cc1ccc([N+](=O)[O-])s1)C1CCN(c2ccc(N3C[C@H](CNC(C)=O)OC3=O)cc2F)CC1 [Compound No. 83]"
reading_qualifier = "="
observed_result = 4

[[record]]
compound = "CC(=O)NC[C@H]1CN(c2ccc(N3C(C)CN(C(=O)c4ccco4)CC3C)c(F)c2)C(=O)O1 (stereo partly drawn) [Compound No. 61]"
reading_qualifier = "="
observed_result = 4

